Target: UniProt:P00441
Sequence (P00441 whole entry): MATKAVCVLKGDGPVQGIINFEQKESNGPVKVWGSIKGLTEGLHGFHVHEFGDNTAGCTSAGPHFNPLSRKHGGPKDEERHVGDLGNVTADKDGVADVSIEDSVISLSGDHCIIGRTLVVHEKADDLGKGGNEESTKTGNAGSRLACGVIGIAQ
Experiment: Binding affinity to human EGFP-tagged SOD1 A4V mutant mRNA expressed in mouse Neuro2a cells assessed as reduction in cells bearing inclusions at 25 uM measured 72 hrs post transfection by Hoechst33342 staining-based epifluorescence microscopic analysis (reference value: 19 to 21%)
Assay type: cell-based
Parameters: scale not given: the % may be the effect or the level left
observable: Activity (%)
Supply the numeric figure in %, leaving out any unit text.

Some entries whose results are on file:
O=C(CS)N[C@@H]1CCCC[C@H]1NC(=O)CS (racemic) :: 14
CCOC(=O)C1(C)CCc2c(Cn3cc(CCC(=O)NCCN(CC(=O)NCCN(CC(=O)NCCN(CC(=O)NCCN(CC(=O)NCCN(CC(=O)NCCN(CC(=O)NCCN(CC(=O)NCCN(CC(=O)NCCN(CC(N)=O)C(=O)Cn4cnc5c(=O)[nH]c(N)nc54)C(=O)Cn4ccc(N)nc4=O)C(=O)Cn4cnc5c(N)ncnc54)C(=O)Cn4ccc(N)nc4=O)C(=O)Cn4cnc5c(=O)[nH]c(N)nc54)C(=O)Cn4cnc5c(N)ncnc54)C(=O)Cn4ccc(N)nc4=O)C(=O)Cn4cc(C)c(=O)[nH]c4=O)C(=O)Cn4cc(C)c(=O)[nH]c4=O)nn3)c(OC(C)=O)c(C)c(C)c2O1 (centres undefined) :: 14
CC(=O)Oc1c(C)c(C)c2c(c1Cn1cc(CCC(=O)NCCN(CC(=O)NCCN(CC(=O)NCCN(CC(=O)NCCN(CC(=O)NCCN(CC(=O)NCCN(CC(=O)NCCN(CC(=O)NCCN(CC(=O)NCCN(CC(N)=O)C(=O)Cn3cnc4c(=O)[nH]c(N)nc43)C(=O)Cn3ccc(N)nc3=O)C(=O)Cn3cnc4c(N)ncnc43)C(=O)Cn3ccc(N)nc3=O)C(=O)Cn3cnc4c(=O)[nH]c(N)nc43)C(=O)Cn3cnc4c(N)ncnc43)C(=O)Cn3ccc(N)nc3=O)C(=O)Cn3cc(C)c(=O)[nH]c3=O)C(=O)Cn3cc(C)c(=O)[nH]c3=O)nn1)CCC(C)(CCCC(C)CCCC(C)CCCC(C)C)O2 (centres undefined) :: 17

**Query** For the record Cc1c(C)c2c(c(C)c1O)CCC(C)(C(=O)NCCN(CC(=O)NCCN(CC(=O)NCCN(CC(=O)NCCN(CC(=O)NCCN(CC(=O)NCCN(CC(=O)NCCN(CC(=O)NCCN(CC(=O)NCCN(CC(N)=O)C(=O)Cn1cnc3c(=O)[nH]c(N)nc31)C(=O)Cn1ccc(N)nc1=O)C(=O)Cn1cnc3c(N)ncnc31)C(=O)Cn1ccc(N)nc1=O)C(=O)Cn1cnc3c(=O)[nH]c(N)nc31)C(=O)Cn1cnc3c(N)ncnc31)C(=O)Cn1ccc(N)nc1=O)C(=O)Cn1cc(C)c(=O)[nH]c1=O)C(=O)Cn1cc(C)c(=O)[nH]c1=O)O2 (centres undefined) , what value of Activity is listed for UniProt:P00441?
**Result** 16
